Tested on: SN12C
Experimental details: NCI tumour cell line growth inhibition, 48 h
The source made the active and inactive calls. Rule as the data show it: active = GI50 up to about 1.1 µM and inactive = higher.
// classify into 1.0 = active, 0.0 = inactive

[
  {
    "Molecule": "COc1cccc2c1C(=O)c1c(O)c3c(c(O)c1C2=O)C[C@@](O)(/C(C)=N/NC(=O)c1ccccc1)C[C@@H]3OC1CC(N)C(O)C(C)O1 (some centres not stated)",
    "System under test": "SN12C",
    "Class assignment": 1.0
  },
  {
    "Molecule": "c1ccc2sc(C3(N4CCCC4)CCCCCC3)cc2c1",
    "System under test": "SN12C",
    "Class assignment": 0.0
  },
  {
    "Molecule": "CCCCCCCCC[n+]1cccc(C2C(C(=O)OCC)=C(C)NC(C)=C2C(=O)OCC)c1",
    "System under test": "SN12C",
    "Class assignment": 0.0
  },
  {
    "Molecule": "CCOC(=O)c1cc(C2CCN(CC(C)CC)C2=S)c(-c2cc(C)no2)[nH]1 (configuration not stated)",
    "System under test": "SN12C",
    "Class assignment": 0.0
  },
  {
    "Molecule": "Cc1ccc(NC(=O)CCC(=O)C2Cc3ccccc3C2=O)cc1C (configuration not stated)",
    "System under test": "SN12C",
    "Class assignment": 0.0
  },
  {
    "Molecule": "O=C(c1ccccc1)C1C(C(=O)c2ccccc2)C(c2ccccc2)N(c2ccccc2)C1c1ccccc1 (configuration not stated)",
    "System under test": "SN12C",
    "Class assignment": 0.0
  }
]

Called result for "CN(C(=O)Cc1ccccc1)n1cnn(CC(=O)OC(C)(C)C)c1=S"
0.0

Called result for "COc1ccc(/C=N/NC(=O)NCCCN(C)C)cc1"
0.0

Called result for "CN(C)CCCNc1ccc2nnn3c4ccc(O)cc4c(=O)c1c23"
0.0

Called result for "Cc1c(O)nc(-n2[nH]c3c(c2=O)CCCC3)[nH]c1=O"
0.0

Called result for CC(=O)OCC1OC(n2cc(F)c(=O)[nH]c2=O)C(NC(=O)OCc2ccccc2)C(OC(C)=O)C1OC(C)=O (configuration not stated)
0.0

###

Tested on: CAKI-1
Experimental details: NCI tumour cell line growth inhibition, 48 h
Active and inactive are the calls of the source. No stated cut-off is given here; in the data, active = GI50 up to about 1.1 µM and inactive = higher.
Some molecules, each annotated with its measured GI50.

[
  {
    "Molecule": "NC12CC3CC(C1)CC(C(=O)O)(C3)C2",
    "GI50": "> 100 µM (inactive)"
  },
  {
    "Molecule": "COC1=CC(=O)c2ccccc2C1(C)C1=NC(C)(C)CO1 (stereo not drawn)",
    "GI50": "> 100 µM (inactive)"
  },
  {
    "Molecule": "C=C1CC(c2ccc(OCCCN3C(=O)c4ccccc4C3=O)cc2)OC1=O (stereo not drawn)",
    "GI50": "2.37 µM (inactive)"
  }
]

I am curious: what GI50 value has been reported for "COC(=O)c1sc(=NC(=S)N2CCCCC2)sc1C(=O)OC" ?
> 100 µM (inactive)

###

Some compounds, each annotated with its measured GI50.
Tested on: SK-OV-3
Experimental details: NCI tumour cell line growth inhibition, 48 h
Active and inactive are the calls of the source. Rule as the data show it: active = GI50 up to about 1.1 µM and inactive = higher.

Example results:
[
  {
    "Compound": "CO/N=C1\\CC(C)N2C(=O)C(C(C)C)NC(=O)C(NC(=O)c3c4nc5c(C(=O)NC6C(=O)NC(C(C)C)C(=O)N7C(C)CC(O)C7C(=O)N(C)CC(=O)N(C)C(C(C)C)C(=O)OC6C)ccc(C)c5oc-4c(C)c(=O)c3N)C(CO)OC(=O)C(C)N(C)C(=O)CN(C)C(=O)C12 (stereo not drawn)",
    "GI50": "3.66 µM (inactive)"
  },
  {
    "Compound": "Cn1cnc([N+](=O)[O-])c1Sc1nnc(-c2ccc(Cl)cc2)n1C",
    "GI50": "51.2 µM (inactive)"
  },
  {
    "Compound": "COc1cc(Nc2nc3ccc(C(F)(F)F)cc3nc2C(=O)O)cc(OC)c1OC",
    "GI50": "29.2 µM (inactive)"
  },
  {
    "Compound": "COc1ccc(Oc2cccc(/C=C3/C(=O)Nc4ccccc43)c2)cc1",
    "GI50": "13.8 µM (inactive)"
  },
  {
    "Compound": "CC(C)Oc1c(C2(c3ccccc3O)SCCCS2)c(=O)c1=O",
    "GI50": "> 100 µM (inactive)"
  }
]

I am curious: what GI50 value has been reported for "c1ccc(C[n+]2ccc3c(c2)CCCC3)cc1" ?
> 100 µM (inactive)

I am curious: what GI50 value has been reported for "CC(=O)N(C(C)=O)c1ncc(-n2nc(-c3ccccc3)cc2-c2ccccc2)c(-c2ccccc2)n1" ?
> 10 µM (inactive)

I am curious: what GI50 value has been reported for Cc1ccc(NC(=O)CCC(=O)C2Cc3ccccc3C2=O)cc1C (stereo not drawn) ?
> 100 µM (inactive)

// provenance: ChEMBL document CHEMBL1201862
